- Measurement description: qHTS RealTime-Glo MT Cell Viability Assay in HEK293 cells - 24 hour (AID 1224886); note: nearly all actives have a fitted effect of over 50% in size
- Condition info: RealTime-Glo luminescence; series mostly up to 76.8 µM
Results filed as inconclusive are left out. Calls of active or inactive are those of the source. Calls come from the whole dose curve; as a rule, active = well fitted cell-killing curve with a large enough effect in the repeat runs; inconclusive = weak or mixed curves, or effect the other way; inactive = flat fitted curve, though single readings scatter.
Possible outcomes: t for active, f for inactive

Compound | Label class
CCOC(=O)COc1cc(-c2nn(C)c(OC(F)F)c2Cl)c(F)cc1Cl | f
CC(C)=CCOc1c2occc2cc2ccc(=O)oc12 | f
CCCCN(N=O)C(=N)N[N+](=O)[O-] | f
O=C(NC(=O)c1c(F)cccc1F)Nc1ccc(OC(F)(F)C(F)OC(F)(F)F)c(Cl)c1 (centres undefined) | f
N#CCc1ccccc1 | f
CCBr | f
COC(=O)C(Cl)C(=O)OC | f
O=C(O)CC(Cl)C(=O)O (centres undefined) | f
CC(C)O.CC(C)O.OCCN(CCO)CCO.OCCN(CCO)CCO.[Ti] | f
CS/C(C)=N/OC(=O)N(C)SN(C)C(=O)O/N=C(\C)SC | t
CC1(C)CCC(Cc2ccc(Cl)cc2)C1(O)Cn1cncn1 (centres undefined) | t
ClCCCCBr | f
Nc1nc(N)nc(N)n1 | f
CCc1ccc(C(=O)NN(C(=O)c2cc(C)cc(C)c2)C(C)(C)C)cc1 | f

----------
- Measurement description: qHTS assay to identify small molecule antagonists of the estrogen receptor alpha (ER-alpha) signaling pathway - cell viability counter screen (AID 743074);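 note: HEK293 cells carrying ER-alpha-UAS-bla reporter stimulated with 17beta-estradiol; nearly all actives have a fitted effect of over 45% in size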
- Condition info: ERalpha-bla HEK293 viability, CellTiter-Glo luminescence, 18 h; series mostly up to 69.4 µM
Inconclusive results are not listed. The source made the active and inactive calls. Calls follow the shape of the full dose curve.
Readout name: outcome

Compound | Readout name | Measured value
COC(=O)c1cncn1C(C)c1ccccc1 (configuration not stated) | outcome | inactive
Cc1ccc2ccccc2c1 | outcome | inactive
CCN(C)N=O | outcome | inactive
Cl/C=C\C[N+]12CN3CN(CN(C3)C1)C2 | outcome | inactive
Clc1ccc(C2(Cn3cncn3)CC(Br)CO2)c(Cl)c1 (configuration not stated) | outcome | inactive
CC(C)N(CCC(C(N)=O)(c1ccccc1)c1ccccn1)C(C)C (configuration not stated) | outcome | inactive
CC(C)=CCOc1c2occc2cc2ccc(=O)oc12 | outcome | inactive

----------
- Measurement description: qHTS assay for small molecule disruptors of the mitochondrial membrane potential - cell viability (AID 720634); note: nearly all actives have a fitted effect of over 20% in size
- Condition info: HepG2 viability, ATP luminescence (CellTiter-Glo), 1 h; series mostly up to 83.2 µM
Results filed as inconclusive are left out. The source made the active and inactive calls. Calls come from the whole dose curve.
Possible outcomes: active, inactive

Compound | Label class
NC(=O)CI | inactive
Cc1ccc2ccccc2c1 | inactive
CCCCCCCCOC(=O)c1ccc(C(=O)OCCCCCCCC)c(C(=O)OCCCCCCCC)c1 | inactive
C=COC(C)=O | inactive
Clc1cccc(SC2CCNCC2)n1 | inactive
Cc1c(F)c(F)c(COC(=O)C2C(/C=C(\Cl)C(F)(F)F)C2(C)C)c(F)c1F (configuration not stated) | inactive
O=S1(=O)OC(c2cc(Br)c(O)c(Br)c2)(c2cc(Br)c(O)c(Br)c2)c2ccccc21 | active

----------
- Measurement target: Cytochrome P450 3A4 (Homo sapiens) (UniProt P08684)
- Sequence (P08684 whole entry, looked up): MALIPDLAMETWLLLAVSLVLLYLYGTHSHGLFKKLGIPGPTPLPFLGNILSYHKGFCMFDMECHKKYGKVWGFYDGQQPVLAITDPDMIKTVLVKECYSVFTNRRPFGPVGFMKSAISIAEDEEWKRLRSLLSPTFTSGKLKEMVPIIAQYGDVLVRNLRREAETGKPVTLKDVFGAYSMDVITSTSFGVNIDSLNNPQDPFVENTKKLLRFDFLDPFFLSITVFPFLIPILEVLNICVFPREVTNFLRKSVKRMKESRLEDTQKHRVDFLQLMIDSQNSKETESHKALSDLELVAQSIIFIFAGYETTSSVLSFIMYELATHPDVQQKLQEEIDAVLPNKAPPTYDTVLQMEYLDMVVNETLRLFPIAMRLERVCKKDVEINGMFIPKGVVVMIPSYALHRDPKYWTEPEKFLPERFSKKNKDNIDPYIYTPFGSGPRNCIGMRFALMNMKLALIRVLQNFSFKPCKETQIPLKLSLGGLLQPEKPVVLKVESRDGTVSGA
- Measurement description: Cytochrome P450 Family 3 Subfamily A Member 4 (CYP3A4) small molecule antagonists: luciferase reporter qHTS assay (AID 1671201); note: nearly all actives have a fitted effect of over 50% in size
- Condition info: P450-Glo CYP3A4 enzyme, luciferin luminescence, 1 h; series mostly up to 115 µM
Records with an inconclusive call do not appear. Activity calls are given as the source filed them. The call rests on the fitted dose curve; in most records, active means well fitted inhibition curve with a large enough effect in the repeat runs; inconclusive means weak or mixed curves; inactive means no such curve, though single readings can be large or run the other way.
Possible outcomes: active, inactive

Compound | Label class
O=Cc1ccc2c(c1)OCO2 | inactive
CC(=O)NC1CCSC1=O (stereo unspecified) | inactive
O=C=Nc1ccc(Cl)cc1 | inactive
CCn1cc[n+](C)c1 | inactive
O=[N+]([O-])c1ccccc1CCl | inactive
CC(Cl)C(C)Cl (stereo unspecified) | inactive
CCN(C)N=O | inactive
ClCc1cccc(Cl)c1 | inactive
C=CC(C)=O | inactive
Nc1nc(N)nc(N)n1 | inactive
CC(C)(Cl)[N+](=O)[O-] | inactive
CNC(C)Cc1ccccc1OC (stereo unspecified) | inactive
CS/C(C)=N/OC(=O)N(C)SN(C)C(=O)O/N=C(\C)SC | inactive
Nc1nc(=S)[nH][nH]1 | inactive
CCCCC(O)(Cn1cncn1)c1ccc(Cl)cc1Cl (stereo unspecified) | active
CCOc1ccc(C(C)(C)COCc2cccc(Oc3ccccc3)c2)cc1 | inactive
